Target entity: OsASTOL1 (Oryza sativa, UniProt Q9XEA6)
Construct: gene RCS1; mature form, N-terminal 87 residues (first 261 bp) deleted; C-terminal His tag (pET-29a NdeI/XhoI); E. coli BL21(DE3); Ni-NTA; dimer by SEC
Sequence (Q9XEA6 whole entry): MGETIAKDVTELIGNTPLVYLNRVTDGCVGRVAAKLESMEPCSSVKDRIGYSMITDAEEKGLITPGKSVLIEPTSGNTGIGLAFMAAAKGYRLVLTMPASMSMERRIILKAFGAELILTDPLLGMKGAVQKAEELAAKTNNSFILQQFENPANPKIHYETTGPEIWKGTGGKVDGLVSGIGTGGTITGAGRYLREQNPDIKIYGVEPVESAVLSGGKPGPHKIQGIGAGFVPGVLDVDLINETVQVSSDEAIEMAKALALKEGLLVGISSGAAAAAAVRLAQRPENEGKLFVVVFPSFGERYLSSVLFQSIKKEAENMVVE
Experiment: microscale thermophoresis, RED-tris-NTA labelled His-tagged protein
Format: binding
Quantity measured: Kd (nM)
Give the number; nM is assumed, so skip it.

-- ask Find the recorded Kd belonging to CC(=O)OC[C@H](N)C(=O)O [OAS] and report it.
-- reply 1.47

* * *

Target entity: UniProt P47998
Sequence (P47998 whole entry): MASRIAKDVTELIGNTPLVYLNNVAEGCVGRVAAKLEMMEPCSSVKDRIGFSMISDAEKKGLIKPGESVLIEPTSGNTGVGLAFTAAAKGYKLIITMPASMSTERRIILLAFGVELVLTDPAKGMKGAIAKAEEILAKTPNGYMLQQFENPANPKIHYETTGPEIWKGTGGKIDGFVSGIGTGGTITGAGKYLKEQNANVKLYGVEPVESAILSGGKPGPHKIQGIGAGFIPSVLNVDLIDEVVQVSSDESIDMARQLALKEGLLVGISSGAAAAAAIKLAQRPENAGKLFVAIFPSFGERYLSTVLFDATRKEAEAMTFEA
Quantity measured: pKd
Units for pKd: none; it is -log10 of a concentration expressed in mol/L.

-- ask Find the recorded pKd belonging to "CC(=O)OC[C@H](N)C(=O)O" and report it.
-- reply 7.88
